Entries and their Quantity of molecule released
Target: glucocerebrosidase (Homo sapiens, UniProt P04062)
Construct: a freeze-dried cutaneous extract obtained after taking a sample by three successive strippings of 15 cm^2; from tissue; host or cells: stratum corneum (powdered, freeze-dried cutaneous extract from three successive strippings)
Sequence (P04062 40-536): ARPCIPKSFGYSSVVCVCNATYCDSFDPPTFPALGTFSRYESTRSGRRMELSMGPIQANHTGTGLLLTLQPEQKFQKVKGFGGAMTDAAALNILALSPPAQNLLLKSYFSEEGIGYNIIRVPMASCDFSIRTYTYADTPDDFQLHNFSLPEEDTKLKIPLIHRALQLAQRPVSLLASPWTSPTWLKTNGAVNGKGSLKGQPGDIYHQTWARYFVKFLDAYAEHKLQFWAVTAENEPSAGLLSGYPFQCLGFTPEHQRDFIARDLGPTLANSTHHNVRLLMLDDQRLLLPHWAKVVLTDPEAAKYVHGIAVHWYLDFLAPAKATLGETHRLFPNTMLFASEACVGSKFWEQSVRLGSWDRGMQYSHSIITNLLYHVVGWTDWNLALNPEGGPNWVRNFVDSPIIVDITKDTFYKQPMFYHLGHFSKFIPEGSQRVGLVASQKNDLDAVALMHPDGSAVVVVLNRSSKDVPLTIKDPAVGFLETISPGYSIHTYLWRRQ
Experiment: Kinetics of hydrolysis of glucosylated precursors by glucocerebrosidase of a stratum corneum extract
Assay type: biochemical
Details: phthalate buffer pH 5.6; 24 hours incubation; freeze-dried cutaneous extract, three strippings of 15 cm^2
Write the number in n mol/hour without appending the unit.

molecule | Quantity of molecule released [n mol/hour]
OC[C@H]1OC(Oc2ccccc2)[C@H](O)[C@@H](O)[C@@H]1O (stereo partly drawn) [Phenylglucopyranoside] | 0.2
Cc1cc(O[C@@H]2O[C@H](CO)[C@@H](O)[C@H](O)[C@H]2O)cc2c1O[C@](C)(CCC[C@H](C)CCC[C@H](C)CCCC(C)C)CC2 [Delta-tocopherol-glucopyranoside] | 14.3
Cc1c(C)c2c(c(C)c1OC1O[C@H](CO)[C@@H](O)[C@H](O)[C@H]1O)CCC(C)(CCCC(C)CCCC(C)CCCC(C)C)O2 (stereo partly drawn) [α-Tocopheryl-glucopyranoside] | 0

Inquiry: Would you mind telling me what Quantity of molecule released value was observed for CC(C)CCCC(C)CCCC(C)CCCC1(C)CCc2cc(OC3OC(CO)C(O)C(O)C3O)ccc2O1 (stereo not drawn) [Tocol-glucopyranoside, tocol-glucopyranoside] ?
Reply text: 14.8

Inquiry: Would you mind telling me what Quantity of molecule released value was observed for Cc1cc(=O)oc2cc(OC3O[C@H](CO)[C@@H](O)[C@H](O)[C@H]3O)ccc12 (stereo partly drawn) [4-methylumbelliferyl-glucopyranoside, 4-methylumbelliferyl glucopyranoside] ?
Reply text: 100

Inquiry: Would you mind telling me what Quantity of molecule released value was observed for Cc1c(OC2O[C@H](CO)[C@@H](O)[C@H](O)[C@H]2O)cc2c(c1C)OC(C)(CCCC(C)CCCC(C)CCCC(C)C)CC2 (stereo partly drawn) [γ-Tocopheryl-glucopyranoside] ?
Reply text: 0
